Test system: KM12
Assay: NCI tumour cell line growth inhibition, 48 h
The source made the active and inactive calls. No stated cut-off is given here; in the data, active = GI50 up to about 1.1 µM and inactive = higher.
Listed below: GI50 values for each entry.
RECORDED ENDPOINT: GI50

CC1(O)C(=O)OC2CC([C@]3(O)CCC4[C@@H]5C[C@H]6O[C@]67[C@@H](O)C=CC(=O)[C@]7(C)C5CC[C@@]43C)C1(C)C2 (some centres not stated): 27 µM (inactive)
COc1cccc(/C=C(\NC(C)=O)c2nc3cc(Cl)ccc3[nH]2)c1: > 100 µM (inactive)
C=CC(C)CCC(C/C=C(\C)CCC=C(C)C)C(=C)CCCC(C)C (configuration not stated): > 100 µM (inactive)
O=C(CC(C(=O)c1cccs1)c1ccsc1)c1ccc(Cl)cc1 (configuration not stated): > 100 µM (inactive)
COC(=O)C(C(=O)C(=O)Nc1c(C)cccc1C)c1cnc2ccccc2n1 (configuration not stated): > 100 µM (inactive)
Cc1cc(-c2nc3cccc(O)c3s2)ccc1N: 10.3 µM (inactive)
COc1ccc(-c2ccc(C(=O)C=P(c3ccccc3)(c3ccccc3)c3ccccc3)cc2)cc1: 13.7 µM (inactive)
Oc1cn(-c2ccc(Cl)cc2)nc1-c1n[nH]c(=S)n1-c1ccccc1: 4.36 µM (inactive)
Cc1ccc2c(c1)C(=O)N(N(C)C)CC(=O)N2: > 100 µM (inactive)
CCOC(=O)C12OC(CCC1=O)C(C(=O)OC)=C2C(=O)OC (configuration not stated): > 10 µM (inactive)
Nc1ccc2c(c1)CN1C(=O)c3ccccc3C1=N2: 50.7 µM (inactive)
O=c1[nH]nc(Cc2ccccc2)n1C1CC1: > 100 µM (inactive)
CC1(C)CC2(C)OC(=N)C1(C#N)C2(C#N)C#N (configuration not stated): 16 µM (inactive)
O=C(CCC1C(=O)NC(=S)NC1=O)c1ccc2ccccc2c1: > 100 µM (inactive)
O=C1CC(c2ccccc2)=Nc2ccccc2N1: > 100 µM (inactive)
OCCNC1c2cc(Cl)ccc2-c2c(Cl)cc(Cl)cc21 (configuration not stated): 32.7 µM (inactive)
CN(/N=C/c1ccc(Cl)c(Cl)c1)C1=NCCCCN1: 19.6 µM (inactive)
O=C1C(=Cc2cccc(O)c2)N=C(c2ccccc2)N1n1c(-c2ccccc2)nc2ccccc2c1=O: 24.9 µM (inactive)
N#CC(=C1C=CC(=NO)C=C1)c1ccc(Cl)cc1: 1.69 µM (inactive)
O=c1[nH]c2nccn2c2c1SCCN2: > 100 µM (inactive)
COc1cc2c(cc1OC)CCN=C2: > 100 µM (inactive)
O=C(O)C12CCCC(CCC1)C2: > 100 µM (inactive)
OC1CN2Cc3cc4c(cc3[C@]13C=C[C@@H](O)CC23)OCO4 (some centres not stated): 18.1 µM (inactive)
O=c1c2cccnc2ncn1CCCN1CCCC1: > 100 µM (inactive)
CC1(C)C=N[N+]2(C)C3C=CC(CC3)C12 (configuration not stated): > 100 µM (inactive)
O=C(COC(=O)c1cccc2c(=O)c3ccccc3[nH]c12)Nc1ccc(S(=O)(=O)Nc2ncccn2)cc1: 43.9 µM (inactive)
O=C1CCCC2C3CC(CN12)C1CCCCN1C3.[O-][Cl+3]([O-])([O-])O (configuration not stated): > 100 µM (inactive)
CC1=NN(C2=NS(=O)(=O)c3ccccc3N2C)C(=O)C1: > 100 µM (inactive)
COc1cc(Br)cc2cc(-c3cn4ccsc4n3)c(=O)oc12: 18.9 µM (inactive)
CSc1snc2sc3c(Cl)nnnc3c12: 16.4 µM (inactive)
O=C(/C=C/c1ccc(Cl)c(Cl)c1)c1ccccc1Cl: 8.13 µM (inactive)
CCC1(N=[N+]=[N-])C(=O)c2ccccc2N(C)C1=O (configuration not stated): > 100 µM (inactive)
CON(C)C(=O)C(C)NC(=O)OC(C)(C)C (configuration not stated): > 100 µM (inactive)
Cc1cc(C)cc(NC(=O)CCC(=O)C2CCC/C2=N\NC(=O)C(=O)NN)c1 (configuration not stated): > 100 µM (inactive)
C/C(=C\Cc1cc(O)ccc1O)CCc1c(C)cc(O)c(C=O)c1C: 32.3 µM (inactive)
O=C(Nc1ccc(Cl)cc1)c1cc(S(=O)(=O)N2CCNNC2=O)c(S)cc1Cl: > 100 µM (inactive)
Cc1ccc(/N=N/c2ccc(N)cc2C)c(S(N)(=O)=O)c1: > 100 µM (inactive)
C#CCOCC12C=CC(O1)C1C(=O)OCC12 (configuration not stated): > 100 µM (inactive)
C=CC1=C(C)c2cc3[nH]c(cc4nc(cc5[nH]c(cc1n2)c(C)c5CCC(=O)N(CC)CC)C(CCC(=O)N(CC)CC)=C4C)c(C)c3C=C: > 100 µM (inactive)
CC(C)(C)N1CC1CNC(=O)C(=O)NCC1CN1C(C)(C)C (configuration not stated): 4.74 µM (inactive)
O=C(Nc1cccc2ccccc12)c1cc2ccccc2oc1=O: > 100 µM (inactive)
COc1cccc(C2c3cc4c(cc3OC(O)C2C)OCO4)c1OC (configuration not stated): 5.04 µM (inactive)

====

System: BT-549
Test: NCI tumour cell line growth inhibition, 48 h
Calls of active or inactive are those of the source. No stated cut-off is given here; in the data, active = GI50 up to about 1.1 µM and inactive = higher.
RECORDED ENDPOINT: GI50

COc1c(Br)cc2c(c1OC)C(Br)CCC(Br)(Br)C2=O (stereo not drawn): 0.527 µM (active)
Fc1cccc(F)c1C1SCc2nc3cc4ccccc4cc3n21 (stereo not drawn): 8.71 µM (inactive)
Nc1nc(Cl)nc2c1ncn2C1CCC(CO)O1 (stereo not drawn): > 100 µM (inactive)
Cn1c(=O)oc2cc(C(=O)CSC(=S)N3CCCCCC3)ccc21: > 100 µM (inactive)
O=C(/C=C(\N=P(c1ccccc1)(c1ccccc1)c1ccccc1)C(F)(F)C(F)(F)C(F)(F)C(F)(F)C(F)(F)C(F)(F)C(F)(F)F)c1ccccc1: > 100 µM (inactive)
Clc1ccc(/C=C/c2nc3ccccc3s2)cc1Cl: 30.1 µM (inactive)
COc1cc(C2c3cc4c(cc3OC(NN)C2C)OCO4)cc(OC)c1O (stereo not drawn): 10.3 µM (inactive)
Nc1ccc(OCCCc2c(-c3ccccc3)[nH]c(N)nc2=O)cc1: 22.5 µM (inactive)
CCOC(=O)C(CS)NC(=O)CCCCCCCC(=O)NC(CS)C(=O)OCC (stereo not drawn): > 100 µM (inactive)
COc1cc(Br)cc2cc(-c3cn4ccsc4n3)c(=O)oc12: 20.3 µM (inactive)
COc1ccc(NC(=S)c2ccc(CN3CCCCC3)s2)cc1: 17 µM (inactive)
C=C(C(=O)OC)[C@@H]1C[C@@H](OC(C)=O)C2=C[C@H](C[C@@]3(C)O[C@@H]3C3=CC(C)=C(O3)[C@H]1OC(C)=O)OC2=O: 12.9 µM (inactive)
CCCCNC(=S)N/C=C1\C(=O)Nc2ccccc2C1=O: > 10 µM (inactive)
CC1(O)C(=O)OC2CC([C@]3(O)CCC4[C@@H]5C[C@H]6O[C@]67[C@@H](O)C=CC(=O)[C@]7(C)C5CC[C@@]43C)C1(C)C2 (stereo partly drawn): 6.68 µM (inactive)
CN1C/C(=C\c2cccs2)C(O)/C(=C/c2cccs2)C1 (stereo not drawn): > 100 µM (inactive)
O=c1[nH]c2nccn2c2c1SCCN2: > 100 µM (inactive)
COc1c(O)cc2c(c1O)C1O[C@H](CO)C(O)[C@H](O)[C@H]1OC2=O (stereo partly drawn): > 100 µM (inactive)
CCCCCCCCC/C=C1/CC(CO)(COC(=O)C2CCCCC2)OC1=O (stereo not drawn): > 100 µM (inactive)

====

Test system: CCRF-CEM
Experiment: NCI tumour cell line growth inhibition, 48 h
Active and inactive are the calls of the source. No stated cut-off is given here; in the data, active = GI50 up to about 1.1 µM and inactive = higher.
Possible outcomes: t for active, f for inactive

Cc1ccc(S(=O)(=O)N(/N=C/C=C/c2ccccc2)c2nnc(-c3ccccc3)c(-c3ccccc3)n2)cc1: f
O=C(/C=C/c1ccc(Cl)c(Cl)c1)c1ccccc1Cl: f
O=C(OCN1C(=O)C2C3C=CC(C2C1=O)C1C2C(=O)N(COC(=O)C4CCCN4)C(=O)C2C31)C1CCCN1 (centres undefined): f
Nc1ccn([C@H]2CO[C@@H](CO)[C@@H]2O)c(=O)n1: f
CCOC(=O)N1C/C(=C\c2ccccc2)C(=O)/C(=C/c2ccccc2)C1: f
CC(=O)O[C@H]1C(=O)[C@@]2(C)[C@H]([C@H](OC(=O)c3ccccc3)[C@]3(O)C[C@H](OC(=O)[C@H](O)[C@@H](NC(=O)OC(C)(C)C)c4ccco4)C(C)=C1C3(C)C)[C@]1(OC(C)=O)CO[C@@H]1C[C@@H]2O: t
COc1cc2c3cc1Oc1c(OC)c(OC)cc4c1[C@@H](Cc1ccc(O)c(c1)Oc1ccc(cc1)C[C@@H]3N(C)CC2)N(C)CC4.c1ccccc1: f
COC(=O)C1=CSC2(S1)C(C(=O)OC)=CSc1c2ssc1=O (centres undefined): t
COC1CCC(O)C(CO)O1 (centres undefined): f
O=C1NC2(CCCC2)C2CCCCC12O (centres undefined): f
COc1cc([C@@H]2c3cc4c(c(O)c3C[C@H]3COC(=O)[C@@H]32)OCO4)cc(OC)c1OC [BETA-PELTATIN A]: f
Cc1ccc(S(=O)(=O)c2ccc(C)cc2[N+](=O)[O-])c([N+](=O)[O-])c1: f
O=C(Nc1cccc2ccccc12)c1cc2ccccc2oc1=O: f
COc1c(C)c2c(c(O)c1C/C=C(\C)CCC(=O)O)C(=O)OC2 [MYCOPHENOLIC ACID]: t
CC1(C)OCC(COC(=O)NCn2cc(-c3ccccc3)nn2)O1 (centres undefined): f
Cc1nc2ccccc2n1Cc1nnc(-c2ccccc2)o1: f
Cc1cc(-c2nc3cccc(O)c3s2)ccc1N: f
CCCCC(=O)c1c(O)nc2sccn2c1=O: f
O=C1C(Cl)=C(Cl)C(Cl)(Cl)C(Cl)C1(Cl)Cl (centres undefined): f

This collection of values is drawn from ChEMBL document CHEMBL1201862.
